Test system: VP-MCC cell lines (WAGA, MKL-1, MKL-2)
Procedure Summary: qHTS cell viability, VP-MCC cell lines as a group (mean AUC, VP.MCC.avg)
Type: cell-based, human
Study Conditions: MIPE library, Control AUC minus VP-MCC AUC (therapeutic window), sheet S2E
Consider the following molecules and their measured Control-VP-MCC readings.
The answer should be a number; do not append a unit.

INSERT INTO assay_data (molecule, tested_target, val) VALUES
  ('CC(=O)SCC(Cc1ccccc1)C(=O)NCC(=O)OCc1ccccc1 (centres unmarked)', 'VP-MCC cell lines (WAGA, MKL-1, MKL-2)', 182.226),
  ('O=c1cc(-c2ccc(O)cc2)oc2cc(O)cc(O)c12', 'VP-MCC cell lines (WAGA, MKL-1, MKL-2)', 92.024),
  ('C=CC(=O)Nc1cccc(Nc2nc(NC3CCC(N(C)C)CC3)nc3c2ncn3C(C)C)c1 (centres unmarked)', 'VP-MCC cell lines (WAGA, MKL-1, MKL-2)', 174.338);

Bench note, VP-MCC cell lines (WAGA, MKL-1, MKL-2): C=C1/C(=C\C=C2/CCC[C@]3(C)[C@@H]([C@H](C)/C=C/[C@H](C)C(C)C)CC[C@@H]23)C[C@@H](O)C[C@@H]1O [1-alpha-Hydroxyergocalciferol] , Control-VP-MCC reads 133.527

Here COc1cc(/C=C/C(=O)CC(=O)/C=C/c2ccc(O)c(OC)c2)ccc1O was tested on VP-MCC cell lines (WAGA, MKL-1, MKL-2), and its Control-VP-MCC came to 62.3178

###

Procedure Summary: qHTS cell viability (CellTiter-Glo, 72 h; primary screen), control cell line
Assay type: cell-based, human
Study Conditions: human, HEK293T cells (control cell line); HEK293T, Log (M) -7.19919; read-out: Percent viability
Quantity Kind: viability at 72 h, 63.2 nM (%)
Response body: numeric value in %, unit text excluded.

Entry COCCn1c2c([n+](Cc3cnccn3)c1C)C(=O)c1ccccc1C2=O [sepantronium bromide, reference compound] — recorded viability at 72 h, 63.2 nM = -1.7

###

Recorded Percent viability, one value per entry.
System: MKL-2 cells (VP-MCC)
Procedure Summary: qHTS cell viability (CellTiter-Glo, 72 h; primary and follow-up small molecule screen)
Type: cell-based, human
Study Conditions: MKL2, 72h, Log (M) -10.1077

In the examples that follow, each entry is paired with its recorded Percent viability.
INSERT INTO measurements (molecule, val) VALUES
  ('Cc1cc(Nc2cc(N3CCN(C)CC3)nc(Sc3ccc(NC(=O)C4CC4)cc3)n2)[nH]n1 [Tozasertib, reference compound]', '101.6%'),
  ('CCn1cc(-c2ccnc3[nH]c(-c4cccc(CN(C)C)c4)cc23)c(-c2ccc(NC(=O)N(C)C)cc2)n1 [GSK-1070916A, reference compound]', '88.8%');

// Percent viability (MKL-2 cells (VP-MCC)) for O=C(Nc1cccc(Cl)c1)Nc1ncc(CCNc2ncnc3ccsc23)s1 [SNS-314, reference compound] = 91.4%

The recorded Percent viability with MKL-2 cells (VP-MCC) for CCS(=O)(=O)c1cccc(-c2cc(C(=O)NC3CCN(C)CC3)c(C)c3[nH]c4ncc(C)cc4c23)c1 [TAK-901, reference compound] was 102.9%

###

System: WAGA cells (VP-MCC)
Procedure Summary: qHTS cell viability (CellTiter-Glo, 72 h; primary and follow-up small molecule screen)
Format: cell-based, human
Study Conditions: WAGA, 72h, Log (M) -9.63055
Quantity Kind: Percent viability (%)
Unit % implied. Number only.

INSERT INTO assay_data (molecule, quantity_kind, val) VALUES
  ('O=C(Nc1cccc(Cl)c1)Nc1ncc(CCNc2ncnc3ccsc23)s1 [SNS-314, reference compound]', 'Percent viability', 102.6),
  ('Cc1cc(Nc2cc(N3CCN(C)CC3)nc(Sc3ccc(NC(=O)C4CC4)cc3)n2)[nH]n1 [Tozasertib, reference compound]', 'Percent viability', 100.0),
  ('CCS(=O)(=O)c1cccc(-c2cc(C(=O)NC3CCN(C)CC3)c(C)c3[nH]c4ncc(C)cc4c23)c1 [TAK-901, reference compound]', 'Percent viability', 114.1);

Entry CCn1cc(-c2ccnc3[nH]c(-c4cccc(CN(C)C)c4)cc23)c(-c2ccc(NC(=O)N(C)C)cc2)n1 [GSK-1070916A, reference compound] , Percent viability reported as 103.0

###

Entries and their Percent viability values follow.
Tested on: UISO cells (VN-MCC)
Procedure Summary: qHTS cell viability (CellTiter-Glo, 72 h; primary and follow-up small molecule screen)
Assay type: cell-based, human
Study Conditions: UISO, 72h, Log (M) -6.76782
Use % as the unit, but write only the number.

INSERT INTO measurements (compound, val) VALUES
  ('CCS(=O)(=O)c1cccc(-c2cc(C(=O)NC3CCN(C)CC3)c(C)c3[nH]c4ncc(C)cc4c23)c1 [TAK-901, reference compound]', 39.6),
  ('O=C(Nc1cccc(Cl)c1)Nc1ncc(CCNc2ncnc3ccsc23)s1 [SNS-314, reference compound]', 75.0),
  ('CCn1cc(-c2ccnc3[nH]c(-c4cccc(CN(C)C)c4)cc23)c(-c2ccc(NC(=O)N(C)C)cc2)n1 [GSK-1070916A, reference compound]', 71.1);

// switching to the query compound
Per the records, this compound ( Cc1cc(Nc2cc(N3CCN(C)CC3)nc(Sc3ccc(NC(=O)C4CC4)cc3)n2)[nH]n1 [Tozasertib, reference compound] ) has Percent viability equal to 70.0

###

Procedure Summary: qHTS cell viability (CellTiter-Glo, 72 h; primary screen), control cell line
Assay type: cell-based, mouse
Study Conditions: mouse, NIH-3T3 cells (control cell line); 3T3, Log (M) -4.81358; read-out: Percent viability
Quantity Kind: viability at 72 h, 15.4 µM (%)
Express it in %; write the number only.

Record summary for COCCn1c2c([n+](Cc3cnccn3)c1C)C(=O)c1ccccc1C2=O [sepantronium bromide, reference compound] : reported viability at 72 h, 15.4 µM = 62.5

###

Test system: MCC26 cells (VN-MCC)
Procedure Summary: qHTS cell viability (CellTiter-Glo, 72 h; primary and follow-up small molecule screen)
Assay type: cell-based, human
Study Conditions: MCC26, 72h, Log (M) -7.24494
Consider the following compounds and their measured Percent viability readings.
Numbers only; they are read as %.

I looked up CCn1cc(-c2ccnc3[nH]c(-c4cccc(CN(C)C)c4)cc23)c(-c2ccc(NC(=O)N(C)C)cc2)n1 [GSK-1070916A, reference compound] and its Percent viability for MCC26 cells (VN-MCC) was 88.6

With MCC26 cells (VN-MCC) as the test system, CCS(=O)(=O)c1cccc(-c2cc(C(=O)NC3CCN(C)CC3)c(C)c3[nH]c4ncc(C)cc4c23)c1 [TAK-901, reference compound] showed Percent viability of 80.5

Here Cc1cc(Nc2cc(N3CCN(C)CC3)nc(Sc3ccc(NC(=O)C4CC4)cc3)n2)[nH]n1 [Tozasertib, reference compound] was tested on MCC26 cells (VN-MCC), and its Percent viability came to 90.3

// Percent viability (MCC26 cells (VN-MCC)) for O=C(Nc1cccc(Cl)c1)Nc1ncc(CCNc2ncnc3ccsc23)s1 [SNS-314, reference compound] = 93.9

###

System: MCC13 cells (VN-MCC)
Procedure Summary: qHTS cell viability (CellTiter-Glo, 72 h; primary and follow-up small molecule screen)
Assay type: cell-based, human
Study Conditions: MIPE library, 11-point DRC, sheet S2E
# MCC13_AUC values compiled below
Format: numeric value only, no unit, no commentary.

INSERT INTO results (compound, val) VALUES
  ('COCC1(CO)C(=O)C2CCN1CC2 (stereo not drawn)', 460.845),
  ('C=CC(=O)Nc1cccc(Nc2nc(NC3CCC(N(C)C)CC3)nc3c2ncn3C(C)C)c1 (stereo not drawn)', 424.628),
  ('O=C(CCCCCCC(=O)Nc1ccccc1)NO [Suberoylanilide hydroxamic acid]', 429.995);

Pending compound:
Reported MCC13_AUC of O=C(CCc1ccc(O)cc1)c1c(O)cc(O)cc1O : 472.315

###

This section presents molecules with their documented Area under the dose-response curve (AUC) WAGA Replicate 3 values.
System: WAGA cells (VP-MCC)
Procedure Summary: qHTS cell viability (CellTiter-Glo, 72 h; primary and follow-up small molecule screen)
Assay type: cell-based, human
Structures can show the parent of a compound that is named as a salt.
A bare number is all that is needed in reply.

INSERT INTO measurements (molecule, tested_target, val) VALUES
  ('O=C1c2c(O)ccc(O)c2C(=O)c2c(NCCNCCO)ccc(NCCNCCO)c21 [Mitoxantrone dihydrochloride]', 'WAGA cells (VP-MCC)', 183.6),
  ('COC[C@H]1OC(=O)c2coc3c2[C@@]1(C)C1=C(C3=O)[C@@H]2CC[C@H](O)[C@@]2(C)C[C@H]1OC(C)=O [17_-hydroxy Wortmannin]', 'WAGA cells (VP-MCC)', 465.6),
  ('CC[n+]1c(-c2ccccc2)c2cc(N)ccc2c2ccc(N)cc21 [Ethidium bromide]', 'WAGA cells (VP-MCC)', 317.1),
  ('CO[C@@H]1C[C@@H](C[C@H]2CC[C@H](C)[C@H]([C@@H](C)C(=O)[O-])O2)O[C@]2(O[C@](C)([C@H]3CC[C@@](C)([C@@H]4O[C@@H]([C@H]5O[C@@](O)(CO)[C@H](C)C[C@@H]5C)C[C@@H]4C)O3)C[C@H]2C)[C@@H]1C.[Na+] [Nigericin sodium salt]', 'WAGA cells (VP-MCC)', 302.7),
  ('C[C@H]1CCC/C=C/[C@@H]2C[C@H](OC(=O)CN(C)C)C[C@H]2[C@H](O)/C=C/C(=O)O1 [Breflate]', 'WAGA cells (VP-MCC)', 278.0);

Input CC[C@@]1(O)C(=O)OCc2c1cc1n(c2=O)Cc2cc3cc(O)ccc3nc2-1 [10-hydroxycamptothecin] . Output Area under the dose-response curve (AUC) WAGA Replicate 3: 184.4

Data point: CCC(=O)CCCCC[C@@H]1NC(=O)[C@H]2CCCCN2C(=O)[C@H]([C@@H](C)CC)NC(=O)[C@H](Cc2cn(OC)c3ccccc23)NC1=O ; Area under the dose-response curve (AUC) WAGA Replicate 3 = 235.6

Lab book: Area under the dose-response curve (AUC) WAGA Replicate 3 of CC(C)(C)CC(C)(C)c1ccc(OCCOCC[N+](C)(C)Cc2ccccc2)cc1 [Benzethonium chloride] noted as 382.0

Area under the dose-response curve (AUC) WAGA Replicate 3 reported for this molecule CN(C)c1ccc(C(=C2C=CC(=[N+](C)C)C=C2)c2ccccc2)cc1.CN(C)c1ccc(C(=C2C=CC(=[N+](C)C)C=C2)c2ccccc2)cc1.O=C(O)C(=O)O.O=C([O-])C(=O)O.O=C([O-])C(=O)O [Malachite green oxalate] : 369.9

Entry O=C1Nc2cc(Br)ccc2/C1=C1/Nc2ccccc2/C1=N\O — recorded Area under the dose-response curve (AUC) WAGA Replicate 3 = 474.9

Noted for O[C@H]1[C@H]2[C@H](O)CCCN2C[C@H]1O : its Area under the dose-response curve (AUC) WAGA Replicate 3 reads 463.6

Looking up O=c1cccc2n1C[C@@H]1CNC[C@H]2C1 , I found its Area under the dose-response curve (AUC) WAGA Replicate 3 recorded as 499.6
